Target: USP7 (Homo sapiens)
Sequence (Q93009 whole entry): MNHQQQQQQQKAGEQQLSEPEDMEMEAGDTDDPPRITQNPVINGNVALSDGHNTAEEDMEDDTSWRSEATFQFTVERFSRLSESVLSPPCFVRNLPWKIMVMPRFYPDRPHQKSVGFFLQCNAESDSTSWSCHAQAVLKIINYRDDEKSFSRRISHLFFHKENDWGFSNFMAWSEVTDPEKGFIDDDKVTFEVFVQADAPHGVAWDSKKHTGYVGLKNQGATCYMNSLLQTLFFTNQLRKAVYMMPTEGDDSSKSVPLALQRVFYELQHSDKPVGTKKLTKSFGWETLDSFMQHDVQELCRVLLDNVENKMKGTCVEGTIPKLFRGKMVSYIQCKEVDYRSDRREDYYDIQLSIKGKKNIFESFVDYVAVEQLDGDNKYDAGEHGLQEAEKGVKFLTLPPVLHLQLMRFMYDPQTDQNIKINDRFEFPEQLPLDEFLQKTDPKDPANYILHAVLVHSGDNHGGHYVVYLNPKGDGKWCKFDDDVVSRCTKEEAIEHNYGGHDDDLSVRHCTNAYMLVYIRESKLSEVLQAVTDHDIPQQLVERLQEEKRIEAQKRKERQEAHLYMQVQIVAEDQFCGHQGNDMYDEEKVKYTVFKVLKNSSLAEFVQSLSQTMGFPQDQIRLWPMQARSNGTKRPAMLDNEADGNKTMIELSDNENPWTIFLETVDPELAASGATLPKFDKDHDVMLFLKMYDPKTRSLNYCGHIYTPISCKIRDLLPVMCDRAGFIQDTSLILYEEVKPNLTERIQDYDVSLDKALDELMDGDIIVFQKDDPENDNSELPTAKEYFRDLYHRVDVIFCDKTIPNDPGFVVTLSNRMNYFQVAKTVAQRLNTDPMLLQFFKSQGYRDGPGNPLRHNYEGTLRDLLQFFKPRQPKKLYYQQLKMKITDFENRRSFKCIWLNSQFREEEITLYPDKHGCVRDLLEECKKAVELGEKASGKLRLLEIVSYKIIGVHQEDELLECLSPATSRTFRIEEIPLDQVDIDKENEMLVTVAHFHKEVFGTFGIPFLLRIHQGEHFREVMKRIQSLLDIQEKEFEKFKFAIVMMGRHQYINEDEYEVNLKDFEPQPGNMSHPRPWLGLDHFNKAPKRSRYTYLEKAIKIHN
measured_parameter: IC50

Query: Reported IC50 for Cc1cc(Cl)cc(-c2ncnc3cc(CN4C(=O)CCC4=O)sc23)c1C[C@@H]1CNCC(C)(C)O1 [Example 215] : what is it?
Result: < 0.01 µM

Query: Reported IC50 for Cc1cc(Cl)cc(-c2ncnc3cc(CN4C(=O)CCC4=O)sc23)c1CC1CNCCO1 (stereo not shown) [Example 153] : what is it?
Result: < 0.01 µM

Query: Reported IC50 for CN1CCC(=O)N(Cc2cc3ncnc(-c4cc(Cl)cc(Cl)c4CC4CNCCO4)c3s2)C1=O (stereo not shown) [Example 205] : what is it?
Result: < 0.01 µM

Query: Reported IC50 for Cc1cc(C)c(CN2CCNC[C@@H]2C)c(-c2ncnc3cc(CN4C(=O)C5CC5C4=O)sc23)c1 (stereo partly shown) [Example 71] : what is it?
Result: > 0.1 µM
